Data provenance: paper PMC7284125

system: S. mansoni adult worms; assay: Motility assay on adult parasites (pixel displacement, relative to DMSO control); assay type: cell-based, Schistosoma mansoni; conditions: secondary screen, 10 μM, D5, Female adult worms
property label: Fractional motility
One number for each entry.

In [3]: df
Out[3]:
                                   compound  numeric_value
0  CCCN1C[C@H](CSC)C[C@@H]2c3cccc4[nH]cc(c34)C[C@H]21 [Pergolide]          -0.82

Go through the items and report each one's Fractional motility.
1. C#CC[C@H](c1nc2cc(Cl)ccc2c(=O)n1Nc1ccccc1)N(CCCN)C(=O)c1cccc(Cl)c1F
2. CN(C)CCC=C1c2ccccc2CCc2ccccc21
3. CN1CCN(C2=Nc3cc(Cl)ccc3Nc3ccccc32)CC1
4. CN(C)[C@@H](CCOc1cccc2ccccc12)c1ccccc1
5. COCCn1c2c([n+](Cc3cnccn3)c1C)C(=O)c1ccccc1C2=O
6. CCCCCCCCc1ccc(CCC(N)(CO)CO)cc1
7. Cc1ccc(Sc2ccccc2N2CCNCC2)c(C)c1
8. NCC(=O)Nc1ccc(-n2nc(C(F)(F)F)cc2-c2ccc3c(ccc4ccccc43)c2)cc1

Given back:
1. -0.43
2. 0.30
3. -0.70
4. -0.24
5. -0.79
6. -0.09
7. 0.24
8. -0.15

Go through the list and state Fractional motility for each entry.
1. CC(=O)c1cc([N+](=O)[O-])c(Sc2ccc(F)cc2F)s1
2. CCn1c2ccccc2c2cc(Nc3ccnc(NCCCN4CCOCC4)n3)ccc21
3. O=C1CCc2ccc(OCCCCN3CCN(c4cccc(Cl)c4Cl)CC3)cc2N1
4. C=CC[C@]1(O)CC[C@H]2[C@@H]3CCC4=CC(=O)CCC4=C3C=C[C@@]21C
5. CNCC[C@H](Oc1cccc2ccccc12)c1cccs1
6. O=C1Cc2cc(CCN3CCN(c4nsc5ccccc45)CC3)c(Cl)cc2N1
7. CC(C)(Cc1ccc2ccccc2c1)NC[C@@H](O)COc1cccc(Cl)c1C#N

Given back:
-0.88
-0.62
-0.80
-0.50
0.30
-0.12
-0.92

List Fractional motility for every entry below, keeping the order given.
1. O=c1[nH]c2ccc(Cl)cc2c(N[C@@H]2CN3CCC2CC3)c1-c1nc2ccccc2[nH]1
2. O=C(Nc1ccccc1-c1cn2c(CN3CCNCC3)csc2n1)c1cnc2ccccc2n1
3. C=C1C(=O)O[C@@H]2/C=C(\C)CC/C=C(\C)CC[C@@H]12 [Costunolide]
4. Cc1cnc(-c2cc(N3CCN(C(=O)CCS(C)(=O)=O)CC3)ncc2Cl)c(C)c1

Given back:
[-0.48, 0.62, -0.83, -0.13]

// each listed compound needs a value for Fractional motility
1. CCOC(=O)C1=C(C)NC(C)=C(C(=O)OCC)C1c1ccccc1/C=C/C(=O)OC(C)(C)C
2. COc1cc(N2CCN(C)CC2)ccc1Nc1nccc(-c2cn(C)c3cnccc23)n1
3. Cc1ccc(C(=O)N(CCCN)[C@@H](c2oc3cc(Cl)ccc3c(=O)c2Cc2ccccc2)C(C)C)cc1

Given back:
1. -0.82
2. -0.27
3. -0.87
